src = ChEMBL document CHEMBL4138123

- System: SNB-19
- protocol: Cytotoxicity against human SNB19 cells assessed as growth inhibition after 48 hrs by sulforhodamine B assay
- Type: functional
- conditionInfo: SNB-19, 48 h, read-out: LC50 (the source's name)

smiles	unitsOfMeasure	readoutRelation	CC50
COc1ccc(-c2cc(/C=C/C(=O)c3cc(OC)c(OC)c(OC)c3)[nH]n2)cc1OC	µM	=	27.1
COc1ccc(-c2cc(/C=C/C(=O)c3ccc(OC)c(OC)c3)[nH]n2)cc1	µM	=	19.6
COc1ccc(-c2cc(/C=C/C(=O)c3ccc(N)cc3)[nH]n2)cc1	µM	=	44.3
COc1ccc(C(=O)/C=C/c2cc(-c3ccc(OC)c(OC)c3)n[nH]2)cc1OC	µM	>	100
COc1ccc(C(=O)/C=C/c2cc(-c3cc(OC)c(OC)c(OC)c3)n[nH]2)cc1OC	µM	=	6.36
